- SYSTEM NAME: UniProtKB Q99685
- Sequence (Q99685 whole entry): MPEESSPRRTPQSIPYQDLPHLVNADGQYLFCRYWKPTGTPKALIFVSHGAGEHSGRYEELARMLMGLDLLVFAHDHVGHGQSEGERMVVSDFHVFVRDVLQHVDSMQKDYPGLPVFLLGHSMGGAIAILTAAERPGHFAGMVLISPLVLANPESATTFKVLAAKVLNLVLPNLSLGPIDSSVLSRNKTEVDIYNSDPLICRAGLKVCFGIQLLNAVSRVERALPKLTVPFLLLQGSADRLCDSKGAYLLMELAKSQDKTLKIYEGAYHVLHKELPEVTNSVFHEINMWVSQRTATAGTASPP
- ASSAY INFO: Inhibition of recombinant human MAGL using fluorogenic-7HCA as substrate preincubated for 30 mins followed by substrate addition measured after 60 mins by fluorescence based assay
MEASURE NAME: IC50 (nM)

I. O=C(OC(CO)C(F)(F)F)N1C[C@@H]2[C@H](C1)[C@H]2c1ccn(-c2ccc(F)cc2)n1 (stereo partly drawn)
II. COC[C@@H](OC(=O)N1C[C@@H]2[C@H](C1)[C@H]2c1ccn(-c2ccc(F)cc2)n1)C(F)(F)F
Which value of IC50 is greater, the one for I or the one for II ? // output: label of the selected item II
(II: 354 nM, I: 6 nM)

1. O=C(O[C@H](CCO)C(F)(F)F)N1C[C@@H]2[C@H](C1)[C@H]2c1ccn(-c2ccc(F)cc2)n1
2. O=C(O[C@H](CF)C(F)(F)F)N1C[C@@H]2[C@H](C1)[C@H]2c1ccn(-c2ccc(F)cc2)n1
3. O=C(ON1C(=O)CCC1=O)N1C[C@@H]2[C@H](C1)[C@H]2c1ccn(-c2ccc(F)cc2)n1
4. CC(OC(=O)N1C[C@@H]2[C@H](C1)[C@H]2c1ccn(-c2ccc(F)cc2)n1)C(F)(F)F (stereo partly drawn)
5. O=C(O[C@@H](CO)C(F)(F)F)N1C[C@@H]2[C@H](C1)[C@H]2c1ccn(-c2ccc(F)cc2)n1
Sequence the entries by IC50, beginning with the highest number. Use the labels to give the requested order. 5, 1, 4, 3, 2
(5: 890 nM, 1: 582 nM, 4: 242 nM, 3: 46 nM, 2: 26 nM)

---

- ASSAY INFO: Thermodynamic solubility of the compound at pH 6.5 after 24 hrs
- Type: physicochemical
- REPORTED CONDITIONS: buffer, read-out: Therm_solubility
MEASURE NAME: solubility thermodynamic at 24 h (µM)
Express the result in µM but write the number alone.

Tell me the measured solubility thermodynamic at 24 h of "O=C(O[C@H](CO)C(F)(F)F)N1C[C@@H]2[C@H](C1)[C@H]2c1ccn(-c2ccc(F)cc2)n1" , please. 25

---

- ASSAY INFO: Ratio of AUClast in C57BL6J mouse brain to plasma at 1 mg/kg, sc measured up to 24 hrs post dose by HPLC-MS/MS analysis
- REPORTED CONDITIONS: brain and plasma
MEASURE NAME: Kp at 24 h
// return just the number, without any unit appended

// Kp at 24 h lookup, key: "O=C(O[C@H](CO)C(F)(F)F)N1C[C@@H]2[C@H](C1)[C@H]2c1ccn(-c2ccc(F)cc2)n1" 2.4

---

- SYSTEM NAME: CES1 (liver carboxylesterase 1) (Homo sapiens, UniProt P23141)
- Sequence (P23141 whole entry): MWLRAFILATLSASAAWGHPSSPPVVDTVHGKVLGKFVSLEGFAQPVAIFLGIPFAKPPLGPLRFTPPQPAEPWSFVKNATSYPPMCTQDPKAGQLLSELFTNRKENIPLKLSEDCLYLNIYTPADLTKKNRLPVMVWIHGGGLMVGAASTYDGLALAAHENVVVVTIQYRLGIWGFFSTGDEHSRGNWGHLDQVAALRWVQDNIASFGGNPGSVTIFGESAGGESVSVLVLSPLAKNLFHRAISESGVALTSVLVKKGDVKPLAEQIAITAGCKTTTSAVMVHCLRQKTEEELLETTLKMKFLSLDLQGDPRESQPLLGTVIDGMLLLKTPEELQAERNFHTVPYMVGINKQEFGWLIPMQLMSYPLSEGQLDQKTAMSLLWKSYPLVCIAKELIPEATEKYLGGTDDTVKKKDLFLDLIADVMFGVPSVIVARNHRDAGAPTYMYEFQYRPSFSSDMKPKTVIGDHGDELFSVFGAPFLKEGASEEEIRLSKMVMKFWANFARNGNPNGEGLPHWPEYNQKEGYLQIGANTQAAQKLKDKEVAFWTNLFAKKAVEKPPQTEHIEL
- ASSAY INFO: Inhibition of human CES1 at 10 uM
MEASURE NAME: inhibition at 10 µM (%)

| STRUCTURE SMILES | inhibition at 10 µM, % |
| --- | --- |
| O=C(OC(C(F)(F)F)C(F)(F)F)N1C[C@@H]2[C@H](C1)[C@H]2c1ccn(-c2ccc(F)cc2)n1 | 58 |
| O=C(O[C@H](CO)C(F)(F)F)N1C[C@@H]2[C@H](C1)[C@H]2c1ccn(-c2ccc(F)cc2)n1 | 80 |

---

- ASSAY INFO: Lipophilicity, log D of the compound by HPLC analysis
- Type: physicochemical
MEASURE NAME: logD

| STRUCTURE SMILES | logD |
| --- | --- |
| O=C(Oc1ccc([N+](=O)[O-])cc1)N1CCC(C(O)(c2ccc3c(c2)OCO3)c2ccc3c(c2)OCO3)CC1 | 5.1 |
| O=C(OC(C(F)(F)F)C(F)(F)F)N1C[C@@H]2[C@H](C1)[C@H]2c1ccn(-c2ccc(F)cc2)n1 | 5.6 |
| COC[C@@H](OC(=O)N1C[C@@H]2[C@H](C1)[C@H]2c1ccn(-c2ccc(F)cc2)n1)C(F)(F)F | 4.2 |

---

- SYSTEM NAME: CYP2D6 (Homo sapiens, UniProt P10635)
- Sequence (P10635 whole entry): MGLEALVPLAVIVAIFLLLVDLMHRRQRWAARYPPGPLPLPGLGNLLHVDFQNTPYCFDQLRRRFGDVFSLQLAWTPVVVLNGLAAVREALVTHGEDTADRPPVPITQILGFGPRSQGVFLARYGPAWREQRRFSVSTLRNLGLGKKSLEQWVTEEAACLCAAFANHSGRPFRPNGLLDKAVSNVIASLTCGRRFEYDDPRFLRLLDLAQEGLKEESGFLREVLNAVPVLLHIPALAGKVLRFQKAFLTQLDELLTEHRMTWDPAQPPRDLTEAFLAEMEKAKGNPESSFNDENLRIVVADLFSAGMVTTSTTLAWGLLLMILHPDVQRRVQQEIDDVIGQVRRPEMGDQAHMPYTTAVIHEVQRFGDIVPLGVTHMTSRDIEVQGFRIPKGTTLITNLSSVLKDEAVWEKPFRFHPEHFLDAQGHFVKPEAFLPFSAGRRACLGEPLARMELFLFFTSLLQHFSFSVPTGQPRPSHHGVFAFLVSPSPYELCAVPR
- ASSAY INFO: Inhibition of CYP2D6 (unknown origin) at 3 uM
- Assay type: ADME
MEASURE NAME: inhibition at 3 µM

I would be grateful if you could share the reported inhibition at 3 µM for "O=C(O[C@H](CO)C(F)(F)F)N1C[C@@H]2[C@H](C1)[C@H]2c1ccn(-c2ccc(F)cc2)n1" . < 10%

---

- ASSAY INFO: Lipophilicity, log D of the compound by HPLC analysis
- Format: physicochemical
MEASURE NAME: logD

| COMPOUND | logD |
| --- | --- |
| O=C(OC(CO)C(F)(F)F)N1C[C@@H]2[C@H](C1)[C@H]2c1ccn(-c2ccc(F)cc2)n1 (stereo partly drawn) | 3.9 |
| O=C(OC[C@@H](O)C(F)(F)F)N1C[C@@H]2[C@H](C1)[C@H]2c1ccn(-c2ccc(F)cc2)n1 | 4 |
| O=C(O[C@H](CCO)C(F)(F)F)N1C[C@@H]2[C@H](C1)[C@H]2c1ccn(-c2ccc(F)cc2)n1 | 4.2 |
| O=C(O[C@@H](CO)C(F)(F)F)N1C[C@@H]2[C@H](C1)[C@H]2c1ccn(-c2ccc(F)cc2)n1 | 3.9 |
| CC(OC(=O)N1C[C@@H]2[C@H](C1)[C@H]2c1ccn(-c2ccc(F)cc2)n1)C(F)(F)F (stereo partly drawn) | 4.8 |
| O=C(O[C@H](CO)C(F)(F)F)N1C[C@@H]2[C@H](C1)[C@H]2c1ccn(-c2ccc(F)cc2)n1 | 3.8 |
| O=C(O[C@H](CF)C(F)(F)F)N1C[C@@H]2[C@H](C1)[C@H]2c1ccn(-c2ccc(F)cc2)n1 | 4.3 |
| O=C(OCC(F)(F)F)N1C[C@@H]2[C@H](C1)[C@H]2c1ccn(-c2ccc(F)cc2)n1 | 4.2 |

---

- ASSAY INFO: Plasma clearance in Wistar Hannover rat at 1 mg/kg, iv administered as bolus dose via jugular vein cannula measured up to 24 hrs post dose by HPLC-MS/MS analysis
- Assay type: ADME, organism-based
MEASURE NAME: clearance (mL/min/kg)
Express it in mL/min/kg; write the number only.

Endpoint output: clearance of "O=C(O[C@H](CO)C(F)(F)F)N1C[C@@H]2[C@H](C1)[C@H]2c1ccn(-c2ccc(F)cc2)n1" . Value? 61

---

- ASSAY INFO: Plasma clearance in Beagle dog at 1 mg/kg, iv administered via cephalic vein measured up to 24 hrs post dose by HPLC-MS/MS analysis
- Assay type: ADME, organism-based, Canis lupus familiaris
MEASURE NAME: clearance (mL/min/kg)
The response must be a number in mL/min/kg with no trailing unit.

For "O=C(O[C@H](CO)C(F)(F)F)N1C[C@@H]2[C@H](C1)[C@H]2c1ccn(-c2ccc(F)cc2)n1" , what is its reported clearance? 21

---

- SYSTEM NAME: Cannabinoid receptor 1 (Homo sapiens)
- Sequence (P21554 whole entry): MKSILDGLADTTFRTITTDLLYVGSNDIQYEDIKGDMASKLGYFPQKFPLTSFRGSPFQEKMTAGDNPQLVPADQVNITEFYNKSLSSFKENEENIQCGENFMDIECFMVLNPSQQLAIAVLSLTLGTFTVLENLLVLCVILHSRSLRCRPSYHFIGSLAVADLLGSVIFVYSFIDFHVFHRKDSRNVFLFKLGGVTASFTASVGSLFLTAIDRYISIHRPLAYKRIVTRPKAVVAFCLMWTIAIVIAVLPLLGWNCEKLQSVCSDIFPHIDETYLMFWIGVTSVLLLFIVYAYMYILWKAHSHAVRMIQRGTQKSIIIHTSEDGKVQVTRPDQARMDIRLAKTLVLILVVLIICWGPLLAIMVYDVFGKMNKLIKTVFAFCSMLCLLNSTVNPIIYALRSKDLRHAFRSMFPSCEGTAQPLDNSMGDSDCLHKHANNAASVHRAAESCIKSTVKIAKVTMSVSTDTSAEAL
- ASSAY INFO: Agonist activity at human CB1 receptor expressed in CHOK1 cells assessed as […] after 20 mins by HTRF assay
MEASURE NAME: EC50 (µM)
The response must be a number in µM with no trailing unit.

I have this compound here, "O=C(O[C@H](CO)C(F)(F)F)N1C[C@@H]2[C@H](C1)[C@H]2c1ccn(-c2ccc(F)cc2)n1" , and I need its recorded EC50. 1.5

---

The entries below come with measured CLint scaled values attached.
- ASSAY INFO: Intrinsic clearance in human liver microsomes
- Type: ADME, microsome
- REPORTED CONDITIONS: read-out: CLH

Some molecules with known CLint scaled results, for comparison:
| STRUCTURE SMILES | CLint scaled |
| --- | --- |
| O=C(O[C@H](CCO)C(F)(F)F)N1C[C@@H]2[C@H](C1)[C@H]2c1ccn(-c2ccc(F)cc2)n1 | < 12 mL/min/kg |
| O=C(O[C@@H](CO)C(F)(F)F)N1C[C@@H]2[C@H](C1)[C@H]2c1ccn(-c2ccc(F)cc2)n1 | < 8 mL/min/kg |
| O=C(O[C@H](CO)C(F)(F)F)N1C[C@@H]2[C@H](C1)[C@H]2c1ccn(-c2ccc(F)cc2)n1 | < 8 mL/min/kg |

Find the recorded CLint scaled belonging to "O=C(OC[C@@H](O)C(F)(F)F)N1C[C@@H]2[C@H](C1)[C@H]2c1ccn(-c2ccc(F)cc2)n1" and report it. 9.4 mL/min/kg
